test: Apparent permeability of the compound from basal to apical side of human Caco2 cells at 50 umol/L after 2 hrs by UPLC/MS analysis; format: ADME, cell-based; settings: Caco-2
Quick reference for Papp B→A at 2 h, 50 µM among some molecules
experimental endpoint: Papp B→A at 2 h, 50 µM

molecule="CN1CCN(c2ccc(C3CC(c4ccc([N+](=O)[O-])o4)=NO3)cc2F)C(=O)C1 (stereo not given)" experimental_endpoint="Papp B→A at 2 h, 50 µM" result="38.6 ×10⁻⁶ cm/s"
molecule="O=C1COCCN1c1ccc(C2CC(c3ccc([N+](=O)[O-])o3)=NO2)cc1F (stereo not given)" experimental_endpoint="Papp B→A at 2 h, 50 µM" result="42.4 ×10⁻⁶ cm/s"
molecule="O=C1COCCN1c1ccc(C2CC(c3ccc([N+](=O)[O-])o3)=NO2)cc1 (stereo not given)" experimental_endpoint="Papp B→A at 2 h, 50 µM" result="56.5 ×10⁻⁶ cm/s"
molecule="CN1CCN(c2ccc(C3CC(c4ccc([N+](=O)[O-])o4)=NO3)cn2)C(=O)C1 (stereo not given)" experimental_endpoint="Papp B→A at 2 h, 50 µM" result="33.3 ×10⁻⁶ cm/s"
molecule="O=[N+]([O-])c1ccc(C2=NOC(c3ccc(N4CCCCC4)cc3)C2)o1 (stereo not given)" experimental_endpoint="Papp B→A at 2 h, 50 µM" result="10.3 ×10⁻⁶ cm/s"

---

tested on: Rattus norvegicus; assay: Toxicity in Sprague-Dawley rat assessed as mortality at 10 mg/kg, iv; type: organism-based; parameters: dose 10 mg/kg, route intravenous; settings: in vivo
experimental endpoint: Activity

molecule="O=[N+]([O-])c1ccc(C2=NOC(c3ccc(N4CCOCC4)nc3)C2)o1 (centres undefined)" result=Non-toxic
molecule="O=[N+]([O-])c1ccc(C2=NOC(c3ccc(N4CCOCC4)cc3)C2)o1 (centres undefined)" result=Non-toxic
molecule="CN1CCN(c2ccc(C3CC(c4ccc([N+](=O)[O-])o4)=NO3)cc2)C(=O)C1 (centres undefined)" result=Toxic
molecule="O=[N+]([O-])c1ccc(C2=NOC(c3ccc(N4CCCCC4)cc3)C2)o1 (centres undefined)" result=Non-toxic

---

tested on: Staphylococcus aureus; experiment: Antibacterial activity against Staphylococcus aureus ATCC 29213 after overnight incubation by microbroth dilution technique; assay type: functional
Quick reference for MIC among some molecules
experimental endpoint: MIC (µg/mL)

molecule="CN1CCN(c2ccc(C3CC(c4ccc([N+](=O)[O-])o4)=NO3)cn2)C(=O)C1 (stereo not given)" readout_number=12.5
molecule="O=C1COCCN1c1ccc(C2CC(c3ccc([N+](=O)[O-])o3)=NO2)cc1 (stereo not given)" readout_number=6.25
molecule="CN1CCN(c2ccc(C3CC(c4ccc([N+](=O)[O-])o4)=NO3)cc2F)C(=O)C1 (stereo not given)" readout_number=6.25
molecule="O=C1COCCN1c1ccc(C2CC(c3ccc([N+](=O)[O-])o3)=NO2)cn1 (stereo not given)" readout_number=12.5
molecule="O=[N+]([O-])c1ccc(C2=NOC(c3ccc(N4CCCCC4)cc3)C2)o1 (stereo not given)" readout_number=12.5

---

tested on: Rattus norvegicus; experiment: Toxicity in Sprague-Dawley rat assessed as seizures at 10 mg/kg, iv; assay type: organism-based; set-up: dose 10 mg/kg, route intravenous; details: in vivo
experimental endpoint: Activity

compound="CN1CCN(c2ccc(C3CC(c4ccc([N+](=O)[O-])o4)=NO3)cc2)C(=O)C1 (centres undefined)" tested_on="Rattus norvegicus" experimental_endpoint=Activity result=Toxic
compound="O=[N+]([O-])c1ccc(C2=NOC(c3ccc(N4CCCCC4)cc3)C2)o1 (centres undefined)" tested_on="Rattus norvegicus" experimental_endpoint=Activity result=Non-toxic
compound="O=[N+]([O-])c1ccc(C2=NOC(c3ccc(N4CCOCC4)cc3)C2)o1 (centres undefined)" tested_on="Rattus norvegicus" experimental_endpoint=Activity result=Non-toxic
compound="O=[N+]([O-])c1ccc(C2=NOC(c3ccc(N4CCOCC4)nc3)C2)o1 (centres undefined)" tested_on="Rattus norvegicus" experimental_endpoint=Activity result=Non-toxic

---

assay: Plasma protein binding in human at 10 uM after 4 hrs by LC/MS analysis; type: ADME, cell-free; settings: read-out: PPB (converted)
Quick reference for fraction unbound at 4 h, 10 µM among some molecules
experimental endpoint: fraction unbound at 4 h, 10 µM

molecule="CN1CCN(c2ccc(C3CC(c4ccc([N+](=O)[O-])o4)=NO3)cn2)C(=O)C1 (stereo not drawn)" readout_number=0.511
molecule="O=C1COCCN1c1ccc(C2CC(c3ccc([N+](=O)[O-])o3)=NO2)cc1 (stereo not drawn)" readout_number=0.357
molecule="O=C1COCCN1c1ccc(C2CC(c3ccc([N+](=O)[O-])o3)=NO2)cc1F (stereo not drawn)" readout_number=0.292
